Target: CDK2/CyclinE1 (Homo sapiens)
Construct: purchased SignalChem C29-18G
Assay: Assay for inhibition of CDK2/CyclinE1 (Caliper microfluidic kinase assay)
Assay type: biochemical
Conditions: CDK2/CyclinE1; read-out: CDK2 IC50
Description: The CDK2 enzyme assay for IC50 determination was performed as follows. Microfluidic kinase detection technology (Caliper) was used to monitor the phosphorylation of peptide substrate by CDK2/CyclinE1. […] The plate was loaded on Caliper EZ Reader (EZ Reader II, PerkinElmer, HD-4HYSG2772), and the reaction mixtures including substrate and product were sipped into the microfluidic chip for separation and detection. […]
pIC50: −log10 of the molar value.
Measured Endpoint: pIC50

Compound: COc1nc(-c2nc(Nc3ccc(N4CCC(N(C)C)CC4)cn3)ncc2F)cc2c1ncn2C(C)C [compound 70]
Measured Endpoint: pIC50
Recorded Result: < 6.00
--
Compound: COc1nc(-c2nc(Nc3ccc(N4CCOC4=O)cn3)ncc2F)cc2c1nc(C)n2C(C)C [compound 85]
Measured Endpoint: pIC50
Recorded Result: < 6.00

Now consider the entry below.
For COc1nc(-c2nc(Nc3ccc(N4CCN(C)CC4)cn3)ncc2F)cc2c1nc(C)n2C(C)C [compound 103] , what is its reported pIC50? < 6.00
